# Tested on: D423 (ENO1-deleted) glioma cells
# Experimental details: Cell proliferation assay (crystal violet) in ENO1-deleted glioma cells
# Assay type: cell-based
# Assay conditions: Glioma cell, 120 h, 21% O2, 5 days where stated; read-out: IC50 against D423 (ENO1-deleted) cells
# Experimental: Cell culture experiments. Cell culture experiments were conducted using the D423-MG cell line. 1p36 homozygous deletion in D423 includes the genes from CAMTAJ to SLC25A33; this includes ENO1. […] Cell proliferation assay. Cell Proliferation was determined by crystal violet staining, as previously described (Leonard et al., 2016 and Satani et al., 2016). […] Washed and dried plates were dye-extracted using 10% acetic acid, and absorbance was measured at 595 nm using Omegastar Plate Reader (BMG Labtech). […]
Please respond with Criterion met when measured IC50 is strictly beneath 80 nM, and with Criterion not met in all other cases.

The following compounds have reported results that may help.
Is 80 nM strictly greater than the compound's reported IC50? compound: CC(=O)ON1CCCC(P(=O)(NCc2ccccc2)OCCSC(=O)C(C)(C)C)C1=O (stereo not drawn)
Criterion met

Next record, please: CC(=O)ON1CCCC(P(=O)(NCc2ccccc2)OCc2ccc([N+](=O)[O-])o2)C1=O (stereo not drawn)
Criterion not met

Next record, please: CC(C)(C)C(=O)OCOP(=O)(NCC1CCCCC1)C1CCCN(O)C1=O (stereo not drawn)
Criterion met

Next record, please: CC(C)(C)C(=O)OCOP(=O)(NCc1ccccc1)C1CCCN(O)C1=O (stereo not drawn)
Criterion not met

Could you now look at the following compound, please?
Is 80 nM strictly greater than the compound's reported IC50? compound: CC(=O)ON1CCCC(P(=O)(NCc2ccccn2)OCCSC(=O)C(C)(C)C)C1=O (stereo not drawn)
Criterion met

The reported measurements were obtained from patent US12679855B2.
